Source of measurements: PubChem BioAssay AID2060904

Test system: 349418-098-R-PDC complex spheroid viability
Test: Anticancer human tumor 349418-098-R-PDC patient-derived lung adenocarcinoma cell line growth inhibition [RAS]
Conditions: curve of first compound; second compound 0.1 µM
Excerpt: RAS pathway inhibitors in Combinations in Complex Spheroids A high-throughput screen of multi-cell type tumor spheroids was designed to identify active combinations of RAS pathway inhibitors and targeted small molecules. Complex spheroids include a stromal component modeled by human endothelial cells (HUVEC) and fibroblasts modeled by human mesenchymal stem cells (MSCs). […] Compounds. […] If the clinical Cmax for an agent had not been determined, the highest concentration tested was 10 microM. […]
Documented IC50 across a set of compounds

Take a look at these entries with their results.
compound	IC50
CC(Nc1ccc2c(c1)OCCn1cc(N3C(=O)OCC3C(F)F)nc1-2)C(N)=O (centres undefined) + C#Cc1c(F)ccc2cc(O)cc(-c3ncc4c(N5CC6CCC(C5)N6)nc(OCC56CCCN5CC(F)C6)nc4c3F)c12	91.7 nM
Nc1ccn(C2OC(CO)C(O)C2(F)F)c(=O)n1 (centres undefined) + C=CC(=O)N1CCN(c2nc(OCC3CCCN3C)nc3c(F)c(-c4nc(N)cc(C)c4C(F)(F)F)c(Cl)cc23)C(C)C1	< 3.16 nM
CC1(C)CCC(Nc2ncc(C(F)(F)F)c(-c3c[nH]c4c(P(C)(C)=O)c(C#N)ccc34)n2)CN1 (centres undefined) + C#Cc1c(F)ccc2cc(O)cc(-c3ncc4c(N5CC6CCC(C5)N6)nc(OCC56CCCN5CC(F)C6)nc4c3F)c12	< 0.949 nM
C=CC(=O)Nc1cc(Nc2nccc(-c3cn(C)c4ccccc34)n2)c(OC)cc1N(C)CCN(C)C + C=CC(=O)N1CCN(c2nc(OCC3CCCN3C)nc3c(F)c(-c4nc(N)cc(C)c4C(F)(F)F)c(Cl)cc23)C(C)C1	> 1000 nM
C=CC(=O)Nc1cc(Nc2nccc(-c3cn(C)c4ccccc34)n2)c(OC)cc1N(C)CCN(C)C + C#Cc1c(F)ccc2cc(O)cc(-c3ncc4c(N5CC6CCC(C5)N6)nc(OCC56CCCN5CC(F)C6)nc4c3F)c12	> 1000 nM

Quick one: IC50 for O=C(c1ccc(F)c(F)c1Nc1ccc(I)cc1F)N1CC(O)([C@@H]2CCCCN2)C1 + C=CC(=O)N1CCN(c2nc(OCC3CCCN3C)nc3c(F)c(-c4nc(N)cc(C)c4C(F)(F)F)c(Cl)cc23)C(C)C1 ?
< 3.16 nM

Further, for CCc1c2c(nc3ccc(O)cc13)-c1cc3c(c(=O)n1C2)COC(=O)[C@]3(O)CC + C#Cc1c(F)ccc2cc(O)cc(-c3ncc4c(N5CC6CCC(C5)N6)nc(OCC56CCCN5CC(F)C6)nc4c3F)c12 ?
1.76 nM

Cool, now CC(=O)OC12COC1CC(O)C1(C)C(=O)C(O)C3=C(C)C(OC(=O)C(O)C(NC(=O)OC(C)(C)C)c4ccccc4)CC(O)(C(OC(=O)c4ccccc4)C21)C3(C)C (centres undefined) + C#Cc1c(F)ccc2cc(O)cc(-c3ncc4c(N5CC6CCC(C5)N6)nc(OCC56CCCN5CC(F)C6)nc4c3F)c12
< 31.6 nM

Next record, please: C[C@@H](NC(=O)c1ncnc(N)c1Cl)c1ncc(C(=O)Nc2cc(C(F)(F)F)c(Cl)cn2)s1 + C#Cc1c(F)ccc2cc(O)cc(-c3ncc4c(N5CC6CCC(C5)N6)nc(OCC56CCCN5CC(F)C6)nc4c3F)c12
2710 nM

###

Tested on: 349418-098-R-PDC complex spheroid viability
Assay: Anticancer human tumor 349418-098-R-PDC cell line growth inhibition [RAS]; active = viability on the fitted dose curve at most 10% of control; inactive = the rest;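 also: spheroids exposed to compound for seven days before viability readout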
Conditions: second compound 0.3 µM; first compound 0.316 µM
// allowed return values: true (1) = active, false (0) = inactive

These recorded examples may help you get a feel for the data.
molecule	class.name
CC(Nc1ccc2c(c1)OCCn1cc(N3C(=O)OCC3C(F)F)nc1-2)C(N)=O (centres undefined) + CCn1c(-c2cc(N3CCN(C)CC3)cnc2C(C)OC)c2c3cc(ccc31)-c1csc(n1)CC(NC(=O)C1CC1C)C(=O)N1CCCC(N1)C(=O)OCC(C)(C)C2	false (0)
NC1c2ccccc2OC12CCN(c1cnc3c(N4CCCc5ncccc54)n[nH]c3n1)CC2 (centres undefined) + CCn1c(-c2cc(N3CCN(C)CC3)cnc2C(C)OC)c2c3cc(ccc31)-c1csc(n1)CC(NC(=O)C1CC1C)C(=O)N1CCCC(N1)C(=O)OCC(C)(C)C2	false (0)
CCC(CC)c1cc(NC2CCC(N)C2)n2nccc2n1 (centres undefined) + CCn1c(-c2cc(N3CCN(C)CC3)cnc2C(C)OC)c2c3cc(ccc31)-c1csc(n1)CC(NC(=O)C1CC1C)C(=O)N1CCCC(N1)C(=O)OCC(C)(C)C2	false (0)

For the next question, use this molecule.
What did this assay record as the result for O=C(c1ccc(F)c(F)c1Nc1ccc(I)cc1F)N1CC(O)([C@@H]2CCCCN2)C1 + CCn1c(-c2cccnc2C(C)OC)c2c3cc(ccc31)N1CCOC(CC(NC(=O)C(C(C)C)N(C)C(=O)C3(F)CCN(C(=O)C#CC(C)(C)N(C)C)CC3)C(=O)N3CCCC(N3)C(=O)OCC(C)(C)C2)C1 ?
true (1)

###

System: 349418-098-R-PDC complex spheroid viability
Test: Anticancer human tumor 349418-098-R-PDC cell line growth inhibition [RAS]; active = viability on the fitted dose curve at most 10% of control; inactive = the rest;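 also: spheroids exposed to compound for seven days before viability readout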
Conditions: second compound 0.003 µM; first compound 3.16 µM
Give your call using only these classes: active, inactive

The following compounds have reported results that may help.
compound	class.name
CC1(O)CCCC1n1c(=O)c(C(F)F)cc2cnc(NC3CCN(S(C)(=O)=O)CC3)nc21 (stereo not drawn) + CCn1c(-c2cc(N3CCN(C)CC3)cnc2C(C)OC)c2c3cc(ccc31)-c1csc(n1)CC(NC(=O)C1CC1C)C(=O)N1CCCC(N1)C(=O)OCC(C)(C)C2	inactive
CC(C)NCC(C(=O)N1CCN(c2ncnc3c2C(C)CC3O)CC1)c1ccc(Cl)cc1 (stereo not drawn) + CCn1c(-c2cccnc2C(C)OC)c2c3cc(ccc31)N1CCOC(CC(NC(=O)C(C(C)C)N(C)C(=O)C3(F)CCN(C(=O)C#CC(C)(C)N(C)C)CC3)C(=O)N3CCCC(N3)C(=O)OCC(C)(C)C2)C1	inactive
Cc1nc(N2CCC3(CC2)COC(C)C3N)c(CO)nc1Sc1ccnc(N)c1Cl (stereo not drawn) + CCn1c(-c2cccnc2C(C)OC)c2c3cc(ccc31)N1CCOC(CC(NC(=O)C(C(C)C)N(C)C(=O)C3(F)CCN(C(=O)C#CC(C)(C)N(C)C)CC3)C(=O)N3CCCC(N3)C(=O)OCC(C)(C)C2)C1	inactive
CC(Nc1ccc2c(c1)OCCn1cc(N3C(=O)OCC3C(F)F)nc1-2)C(N)=O (stereo not drawn) + CCn1c(-c2cccnc2C(C)OC)c2c3cc(ccc31)N1CCOC(CC(NC(=O)C(C(C)C)N(C)C(=O)C3(F)CCN(C(=O)C#CC(C)(C)N(C)C)CC3)C(=O)N3CCCC(N3)C(=O)OCC(C)(C)C2)C1	inactive
CC(=O)OC12COC1CC(O)C1(C)C(=O)C(O)C3=C(C)C(OC(=O)C(O)C(NC(=O)OC(C)(C)C)c4ccccc4)CC(O)(C(OC(=O)c4ccccc4)C21)C3(C)C (stereo not drawn) + CCn1c(-c2cc(N3CCN(C)CC3)cnc2C(C)OC)c2c3cc(ccc31)-c1csc(n1)CC(NC(=O)C1CC1C)C(=O)N1CCCC(N1)C(=O)OCC(C)(C)C2	inactive
CC(C)NCC(C(=O)N1CCN(c2ncnc3c2C(C)CC3O)CC1)c1ccc(Cl)cc1 (stereo not drawn) + CCn1c(-c2cc(N3CCN(C)CC3)cnc2C(C)OC)c2c3cc(ccc31)-c1csc(n1)CC(NC(=O)C1CC1C)C(=O)N1CCCC(N1)C(=O)OCC(C)(C)C2	inactive

Hi, do you know how CC1(O)CCCC1n1c(=O)c(C(F)F)cc2cnc(NC3CCN(S(C)(=O)=O)CC3)nc21 (stereo not drawn) + CCn1c(-c2cccnc2C(C)OC)c2c3cc(ccc31)N1CCOC(CC(NC(=O)C(C(C)C)N(C)C(=O)C3(F)CCN(C(=O)C#CC(C)(C)N(C)C)CC3)C(=O)N3CCCC(N3)C(=O)OCC(C)(C)C2)C1 came out in this test?
inactive

Next: CCC(CC)c1cc(NC2CCC(N)C2)n2nccc2n1 (stereo not drawn) + CCn1c(-c2cc(N3CCN(C)CC3)cnc2C(C)OC)c2c3cc(ccc31)-c1csc(n1)CC(NC(=O)C1CC1C)C(=O)N1CCCC(N1)C(=O)OCC(C)(C)C2
active

###

Test system: 349418-098-R-PDC complex spheroid viability
Assay: Anticancer human tumor 349418-098-R-PDC cell line growth inhibition [RAS];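 also: spheroids exposed to compound for seven days before viability readout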
Settings: second compound 0.00949 µM; first compound 1 µM; stronger effect = lower value
Source text: RAS pathway inhibitors in Combinations in Complex Spheroids A high-throughput screen of multi-cell type tumor spheroids was designed to identify active combinations of RAS pathway inhibitors and targeted small molecules. Complex spheroids include a stromal component modeled by human endothelial cells (HUVEC) and fibroblasts modeled by human mesenchymal stem cells (MSCs). […] Compounds. […] If the clinical Cmax for an agent had not been determined, the highest concentration tested was 10 microM. […]
value.kind: viability, T/C

Look over these answered cases.
compound	viability, T/C
CC1(O)CCCC1n1c(=O)c(C(F)F)cc2cnc(NC3CCN(S(C)(=O)=O)CC3)nc21 (centres undefined) + CCn1c(-c2cc(N3CCN(C)CC3)cnc2C(C)OC)c2c3cc(ccc31)-c1csc(n1)CC(NC(=O)C1CC1C)C(=O)N1CCCC(N1)C(=O)OCC(C)(C)C2	23%
CCN1CCN(Cc2ccc(Nc3ncc(F)c(-c4cc(F)c5nc(C)n(C(C)C)c5c4)n3)nc2)CC1 + CCn1c(-c2cccnc2C(C)OC)c2c3cc(ccc31)N1CCOC(CC(NC(=O)C(C(C)C)N(C)C(=O)C3(F)CCN(C(=O)C#CC(C)(C)N(C)C)CC3)C(=O)N3CCCC(N3)C(=O)OCC(C)(C)C2)C1	14.7%
C=CC(=O)N1CCN(c2nc(OCC3CCCN3C)nc3c(F)c(-c4nc(N)cc(C)c4C(F)(F)F)c(Cl)cc23)C(C)C1 (centres undefined) + CCn1c(-c2cc(N3CCN(C)CC3)cnc2C(C)OC)c2c3cc(ccc31)-c1csc(n1)CC(NC(=O)C1CC1C)C(=O)N1CCCC(N1)C(=O)OCC(C)(C)C2	80.7%

I am curious: what viability, T/C value has been reported for O=C(c1ccc(F)c(F)c1Nc1ccc(I)cc1F)N1CC(O)([C@@H]2CCCCN2)C1 + CCn1c(-c2cc(N3CCN(C)CC3)cnc2C(C)OC)c2c3cc(ccc31)-c1csc(n1)CC(NC(=O)C1CC1C)C(=O)N1CCCC(N1)C(=O)OCC(C)(C)C2 ?
4.12%
